- Target Entity: Kras and SOS1 (biotin-tagged human Kras loaded with GDP, His-tagged human SOS1) (Homo sapiens, UniProt P01116, G12D)
- Construct: made in house; host or cells: E. coli (stated for Kras only)
- Sequence (P01116 1-188 isoform P01116-2 G12D): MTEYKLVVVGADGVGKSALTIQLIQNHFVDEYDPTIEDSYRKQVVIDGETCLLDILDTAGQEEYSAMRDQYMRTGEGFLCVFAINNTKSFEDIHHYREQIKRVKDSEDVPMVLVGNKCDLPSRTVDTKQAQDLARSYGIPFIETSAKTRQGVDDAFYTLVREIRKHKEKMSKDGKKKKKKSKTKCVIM
- Protocol Summary: Protein-protein interaction inhibition between Kras and SOS1 (KrasGl2D-SOS PPI) using AlphaScreen
- Type: binding
- Condition Parameters: AlphaScreen; biotin-tagged human Kras loaded with GDP, His-tagged human SOS1; read-out: KRAS G12D-SOS PPI IC50
Positions of bridges follow the written chain, without caps; N, C: chain ends. Non-standard residues stand in square brackets, D forms with d. Residues, ends and D or L forms follow the SMILES beside them. *: point of attachment. hPhe(3-Cl-4-CF3) = N[C@@H](CCc1ccc(C(F)(F)F)c(Cl)c1)C(=O)O; NMeAla(4-thiazolyl) = CN[C@@H](Cc1cscn1)C(=O)O; NMeCha = CN[C@@H](CC1CCCCC1)C(=O)O; NMeChg = CN[C@H](C(=O)O)C1CCCCC1; NMeD = CN[C@@H](CC(=O)O)C(=O)O; NMeL = CN[C@@H](CC(C)C)C(=O)O; NMeV = CN[C@H](C(=O)O)C(C)C; d(β3hA) = C[C@@H](N)CC(=O)O; dIva = CC[C@@](C)(N)C(=O)O; NMeA = CN[C@@H](C)C(=O)O; Piperidide = C1CCN(*)CC1; Ac5c = NC1(C(=O)O)CCCC1; Sar = CNCC(=O)O
Property Name: pIC50
Expect pIC50 as a plain number equal to -log10 of the molar concentration.

Examples with their reported pIC50 follow.
compound="CC[C@H](C)[C@@H]1NC(=O)[C@H](CC(C)C)N(C)C(=O)C[C@@H](C)NC(=O)[C@H](C(C)C)N(C)C(=O)[C@@](C)(CC)NC(=O)[C@@H]2CCCN2C(=O)[C@H](CCc2ccc(C(F)(F)F)c(Cl)c2)NC(=O)CN(C)C(=O)[C@H](CC2CCCCC2)N(C)C(=O)CN(C)C(=O)CN(C)C1=O [Compound 275] (cyclo(I[Sar][Sar][NMeCha][Sar][hPhe(3-Cl-4-CF3)]P[dIva][NMeV][d(β3hA)][NMeL]))" reported_value=7.34
compound="CC[C@H](C)[C@@H]1NC(=O)[C@H](C)N(C)C(=O)C[C@@H](C(=O)N2CCCCC2)N(C)C(=O)[C@H](C(C)C)N(C)C(=O)C2(CCCC2)NC(=O)[C@@H]2CCCN2C(=O)[C@H](CCc2ccc(C(F)(F)F)c(Cl)c2)NC(=O)[C@H]2CCCN2C(=O)[C@H](CC2CCCCC2)N(C)C(=O)CN(C)C(=O)CN(C)C1=O [Compound 135] ([NMeA]I[Sar][Sar][NMeCha][dP][hPhe(3-Cl-4-CF3)]P[Ac5c][NMeV][NMeD]-Piperidide; lactam N-11)" reported_value=7.42

Okay, now this compound:
Task: Give pIC50 for the following compound: CC[C@H](C)[C@@H]1NC(=O)[C@H](CC(C)C)N(C)C(=O)C[C@@H](C(=O)N2CCCCC2)N(C)C(=O)[C@H](C2CCCCC2)N(C)C(=O)C2(CCCC2)NC(=O)[C@H](Cc2cscn2)N(C)C(=O)[C@H](CCc2ccc(C(F)(F)F)c(Cl)c2)NC(=O)CN(C)C(=O)[C@H](CC2CCCCC2)N(C)C(=O)CN(C)C(=O)CN(C)C1=O [Compound 500] ([NMeL]I[Sar][Sar][NMeCha][Sar][hPhe(3-Cl-4-CF3)][NMeAla(4-thiazolyl)][Ac5c][NMeChg][NMeD]-Piperidide; lactam N-11)
Result: 8.32
